assay: Liver transaminase (ALT) levels in serum (Example 14); type: in vivo, mice; details: 10 mg/kg, serum, saline = 24;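 further: ALT reported in IU/L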
Listing of recorded ALT levels by entry.

SUBSTANCE	ALT levels [IU/L]
CSUSTAGCACTGGCCSUS [ISIS 392749]	24
C1U1TAGCACTGGCC1U1 [ISIS 392745]	20
^MeCSTSTAGCACTGGC^MeCSTS [ISIS 411847]	27
^MeC1T1TAGCACTGGC^MeC1T1 [ISIS 392063]	17

====

Listing of recorded PTEN mRNA levels (% inhibition) by entry.
test system: PTEN mRNA; test: PTEN mRNA levels in liver, real-time PCR (Example 14 in vivo study); set-up: species or system mice; settings: 3.2 mg/kg single i.p., liver, 72 h

SUBSTANCE	PTEN mRNA levels (% inhibition), %
C1U1TAGCACTGGCC1U1 [ISIS 392745]	0
CSUSTAGCACTGGCCSUS [ISIS 392749]	14
^MeCSTSTAGCACTGGC^MeCSTS [ISIS 411847]	0
^MeC1T1TAGCACTGGC^MeC1T1 [ISIS 392063]	0

====

assay: Liver transaminase (ALT) levels in serum (Example 14); format: in vivo, mice; settings: 100 mg/kg, serum, saline = 24;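 further: ALT reported in IU/L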
PARAMETER MEASURED: ALT levels

SUBSTANCE	PARAMETER MEASURED	RESULT
^MeC1T1TAGCACTGGC^MeC1T1 [ISIS 392063]	ALT levels	13811 IU/L
CSUSTAGCACTGGCCSUS [ISIS 392749]	ALT levels	33 IU/L
C1U1TAGCACTGGCC1U1 [ISIS 392745]	ALT levels	3842 IU/L
^MeCSTSTAGCACTGGC^MeCSTS [ISIS 411847]	ALT levels	2816 IU/L

====

system: PTEN mRNA; assay: PTEN mRNA levels in liver, real-time PCR (Example 14 in vivo study); design: species or system mice; settings: 10 mg/kg single i.p., liver, 72 h

SUBSTANCE	MEASUREMENT TARGET	PTEN mRNA levels (% inhibition) / %
^MeCSTSTAGCACTGGC^MeCSTS [ISIS 411847]	PTEN mRNA	32
C1U1TAGCACTGGCC1U1 [ISIS 392745]	PTEN mRNA	58
CSUSTAGCACTGGCCSUS [ISIS 392749]	PTEN mRNA	20
^MeC1T1TAGCACTGGC^MeC1T1 [ISIS 392063]	PTEN mRNA	68

====

assay: Liver transaminase (ALT) levels in serum (Example 14); format: in vivo, mice; settings: 66 mg/kg, serum, saline = 24;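 further: ALT reported in IU/L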

SUBSTANCE	ALT levels, IU/L
C1U1TAGCACTGGCC1U1 [ISIS 392745]	59
^MeC1T1TAGCACTGGC^MeC1T1 [ISIS 392063]	4292
CSUSTAGCACTGGCCSUS [ISIS 392749]	18
^MeCSTSTAGCACTGGC^MeCSTS [ISIS 411847]	279

====

Listing of recorded ALT levels by entry.
experiment: Liver transaminase (ALT) levels in serum (Example 14); assay type: in vivo, mice; details: 3.2 mg/kg, serum, saline = 24;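 further: ALT reported in IU/L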
PARAMETER MEASURED: ALT levels (IU/L)

SUBSTANCE	QUANTITATIVE READOUT
C1U1TAGCACTGGCC1U1 [ISIS 392745]	30
^MeCSTSTAGCACTGGC^MeCSTS [ISIS 411847]	26
^MeC1T1TAGCACTGGC^MeC1T1 [ISIS 392063]	20
CSUSTAGCACTGGCCSUS [ISIS 392749]	18
